protocol_summary: Predicted gefitinib exposure (empirical Bayesian estimates), inter- and intra-patient comparison with/without ILD
Assay type: in vivo, Japanese patients with NSCLC
protocol_conditions: human, plasma, oral, 250 mg, intra-patient (n = 19); at the time of ILD development; Fig. 2b; read-out: AUC0-24
Procedure: When estimating the exposure at first dosing and at steady state, time-dependent pharmacokinetics were not assumed. Thus, both exposures at first dosing and steady state can be theoretically derived if at least one plasma concentration at either first dosing or steady state is available. Individual exposures were predicted based on patients’ dosing history, assuming steady state at 144 h after the first dosing. […] Serum concentration of AGP were likewise determined at first dosing and at steady state. […]
parameter_measured: AUC(0-t) (ng·h/mL)
The reply should contain only the number, in ng·h/mL.

Consider the compound `COc1cc2ncnc(Nc3ccc(F)c(Cl)c3)c2cc1OCCCN1CCOCC1` . State its measured AUC(0-t).
13600

* * *

protocol_summary: Predicted gefitinib exposure (empirical Bayesian estimates), inter- and intra-patient comparison with/without ILD
Format: in vivo, Japanese patients with NSCLC
protocol_conditions: human, plasma, oral, 250 mg, steady state; patients with ILD; Fig. 1e; read-out: AUC0-24,SS
parameter_measured: AUC(0-t) (ng·h/mL)
The reply should contain only the number, in ng·h/mL.

Consider the molecule COc1cc2ncnc(Nc3ccc(F)c(Cl)c3)c2cc1OCCCN1CCOCC1 [gefitinib] . State its measured AUC(0-t).
10600

* * *

protocol_summary: Predicted gefitinib exposure (empirical Bayesian estimates), inter- and intra-patient comparison with/without ILD
Type: in vivo, Japanese patients with NSCLC
protocol_conditions: human, plasma, oral, 250 mg, after the first dosing; patients without ILD; Fig. 1b; read-out: AUC0-24
parameter_measured: AUC(0-t) (ng·h/mL)
The reply should contain only the number, in ng·h/mL.

Consider the compound COc1cc2ncnc(Nc3ccc(F)c(Cl)c3)c2cc1OCCCN1CCOCC1 [gefitinib] . State its measured AUC(0-t).
2990

* * *

protocol_summary: Predicted gefitinib exposure (empirical Bayesian estimates), inter- and intra-patient comparison with/without ILD
Type: in vivo, Japanese patients with NSCLC
protocol_conditions: human, plasma, oral, 250 mg, after the first dosing; patients with ILD; Fig. 1b; read-out: AUC0-24
parameter_measured: AUC(0-t) (ng·h/mL)
The reply should contain only the number, in ng·h/mL.

Consider the compound `COc1cc2ncnc(Nc3ccc(F)c(Cl)c3)c2cc1OCCCN1CCOCC1` . State its measured AUC(0-t).
3970

* * *

protocol_summary: Predicted gefitinib exposure (empirical Bayesian estimates), inter- and intra-patient comparison with/without ILD
Format: in vivo, Japanese patients with NSCLC
protocol_conditions: human, plasma, oral, 250 mg, intra-patient (n = 19); at time other than ILD development (steady state); Fig. 2b; read-out: AUC0-24
parameter_measured: AUC(0-t) (µg·h/mL)
The reply should contain only the number, in µg·h/mL.

Consider the molecule `COc1cc2ncnc(Nc3ccc(F)c(Cl)c3)c2cc1OCCCN1CCOCC1` . State its measured AUC(0-t).
10.1

* * *

protocol_summary: Predicted gefitinib exposure (empirical Bayesian estimates), inter- and intra-patient comparison with/without ILD
Type: in vivo, Japanese patients with NSCLC
protocol_conditions: human, plasma, oral, 250 mg, steady state; patients without ILD; Fig. 1e; read-out: AUC0-24,SS
parameter_measured: AUC(0-t)
Put your answer as a value accompanied by its unit after it.

Consider the molecule `COc1cc2ncnc(Nc3ccc(F)c(Cl)c3)c2cc1OCCCN1CCOCC1` . State its measured AUC(0-t).
8830 ng·h/mL
